- Test system: HCMV UL50-UL53 nuclear egress complex (human cytomegalovirus)
- protocol.description: inhibitors of HCMV UL50-UL53 interaction, biochemical, HTRF (AID 1918969)
- details: normalized percent inhibition, hits give high values, concentration not given here
Out of some 190,000 compounds screened, about 280 (0.15%) were called active. What follows is part of a selection rich in actives, with near analogues and random picks from the rest.
# inhibition per entry
# unit: % | format: bare number

Cc1nn(C)cc1CN(C)C(=O)c1cnn2c(C(F)(F)F)cc(-c3ccc(Br)cc3)nc12    -24.9

Asked: Read off the recorded inhibition for COc1ccccc1N1CCN(C(=O)Cc2csc(NC(=O)Nc3ccccc3)n2)CC1
Given back: -7.3

Asked: # return recorded inhibition for entry Cc1c2cnn(CC(=O)NCc3ccco3)c(=O)c2c(C)n1Cc1ccccc1
Given back: -1.5

Asked: Please list inhibition recorded for the compound Cc1cccc(NC(c2ccccn2)c2ccc3cccnc3c2O)n1 (stereo not given)
Given back: -53.1

Asked: Quickly give me recorded inhibition for CCc1nc2cccnc2n1-c1ccc(CC(=O)N2CCOCC2)cc1
Given back: -27.2

Asked: Provide inhibition value for the following compound: Cc1nnc(NC(=O)Cn2cnc3oc(C)c(C)c3c2=O)s1
Given back: -21.8
